assay: Oral bioavailability in rat; type: ADME, organism-based; details: in vivo

mol	bioavailability, %
Fc1ccc(-c2cc(Nc3ccncc3)c3cc[nH]c3n2)c(F)c1	65
C[C@H](O)CNC(=O)c1cnccc1Nc1cc(-c2cc(Cl)ccc2F)nc2[nH]ccc12	17
Cc1cnc(-c2cc(Cl)ccc2F)cc1-n1c(=O)n(CC(N)=O)c2cnccc21	62
Fc1cc(F)c(-c2cc(Nc3ccncc3)c3cc[nH]c3n2)cc1Cl	13

These data points were gathered from ChEMBL document CHEMBL4425174.
